The measurements presented in this section are drawn from ChEMBL document CHEMBL1800039.

Below, each entry is listed alongside its reported log10 of IC50.
assay: Binding affinity to Escherichia coli DNA polymerase 3 subunit beta expressed in Escherichia coli BL21 by SPR analysis
Where a SMILES comes first, the peptide text is derived from it. [ ]: non-standard residue; d: D form. Phe(4-Me) = Cc1ccc(C[C@H](N)C(=O)O)cc1; hCha = N[C@@H](CCC1CCCCC1)C(=O)O; Cha = N[C@@H](CC1CCCCC1)C(=O)O
log10 IC50, nM

query: Please report the recorded log10 of IC50 for CC(=O)N[C@@H](CCC(N)=O)C(=O)N[C@@H](CC1CCCCC1)C(=O)N[C@@H](CC(=O)O)C(=O)N[C@@H](CC(C)C)C(=O)N[C@@H](Cc1ccc(C)cc1)C(=O)O (Ac-Q[Cha]DL[Phe(4-Me)]-OH) .
result: 2.41

query: Please report the recorded log10 of IC50 for CC(=O)N[C@@H](CCC(N)=O)C(=O)N[C@@H](CCC1CCCCC1)C(=O)N[C@@H](CC(=O)O)C(=O)N[C@@H](CC(C)C)C(=O)N[C@@H](Cc1ccccc1)C(=O)O (Ac-Q[hCha]DLF-OH) .
result: 4.92

====

assay: Binding affinity to Escherichia coli DNA polymerase 3 subunit beta expressed in Escherichia coli BL21 by ITC assay
Where a SMILES comes first, the peptide text is derived from it. [ ]: non-standard residue; d: D form. Phe(4-Br) = N[C@@H](Cc1ccc(Br)cc1)C(=O)O; Phe(4-Me) = Cc1ccc(C[C@H](N)C(=O)O)cc1; Cha = N[C@@H](CC1CCCCC1)C(=O)O
Below, each entry is listed alongside its reported Kd.
Field format: number, assumed nM, no unit text.

Known results for compounds:
CC(=O)N[C@@H](CCC(N)=O)C(=O)N[C@@H](CC1CCCCC1)C(=O)N[C@@H](CC(=O)O)C(=O)N[C@@H](CC(C)C)C(=O)N[C@@H](Cc1ccccc1)C(=O)O (Ac-Q[Cha]DLF-OH) = 222
CC(=O)N[C@@H](CCC(N)=O)C(=O)N[C@@H](CC1CCCCC1)C(=O)N[C@@H](CC(=O)O)C(=O)N[C@@H](CC(C)C)C(=O)N[C@@H](Cc1ccc(C)cc1)C(=O)O (Ac-Q[Cha]DL[Phe(4-Me)]-OH) = 362

Could you now consider this next compound?
query: Please report the recorded Kd for CC(=O)N[C@@H](CCC(N)=O)C(=O)N[C@@H](CC1CCCCC1)C(=O)N[C@@H](CC(=O)O)C(=O)N[C@@H](CC(C)C)C(=O)N[C@@H](Cc1ccc(Br)cc1)C(=O)O (Ac-Q[Cha]DL[Phe(4-Br)]-OH) .
result: 136

====

Below, each entry is listed alongside its reported pIC50.
experiment: Binding affinity to Escherichia coli DNA polymerase 3 subunit beta expressed in Escherichia coli BL21 by SPR analysis
Where a SMILES comes first, the peptide text is derived from it. [ ]: non-standard residue; d: D form. Phe(4-Br) = N[C@@H](Cc1ccc(Br)cc1)C(=O)O; Phe(4-Cl) = N[C@@H](Cc1ccc(Cl)cc1)C(=O)O; tBuAla = CC(C)(C)C[C@H](N)C(=O)O; Cha = N[C@@H](CC1CCCCC1)C(=O)O
Please note pIC50 is a logarithmic value: minus log10 of concentration in mol/L. Answer with that number alone.

CC(C)C[C@H](NC(=O)[C@H](CC(=O)O)NC(=O)[C@H](CC(C)C)NC(=O)[C@@H](N)CCC(N)=O)C(=O)N[C@@H](Cc1ccccc1)C(=O)O = 4.91
CC(=O)N[C@@H](CCC(N)=O)C(=O)N[C@@H](CC1CCCCC1)C(=O)N[C@@H](CC(=O)O)C(=O)N[C@@H](CC(C)C)C(=O)N[C@@H](Cc1ccc(Cl)cc1)C(=O)O (Ac-Q[Cha]DL[Phe(4-Cl)]-OH) = 6.80
CC(=O)N[C@@H](CCC(N)=O)C(=O)N[C@@H](CC1CCCCC1)C(=O)N[C@@H](CC(=O)O)C(=O)N[C@@H](CC(C)C)C(=O)N[C@@H](Cc1ccc(Br)cc1)C(=O)O (Ac-Q[Cha]DL[Phe(4-Br)]-OH) = 7.02
CC(=O)N[C@@H](CCC(N)=O)C(=O)N[C@@H](CC1CCCCC1)C(=O)N[C@@H](CC(=O)O)C(=O)N[C@@H](CC(C)C)C(=O)N[C@@H](Cc1ccccc1)C(=O)O (Ac-Q[Cha]DLF-OH) = 6.77
CC(=O)N[C@@H](CCC(N)=O)C(=O)N[C@@H](CC(C)(C)C)C(=O)N[C@@H](CC(=O)O)C(=O)N[C@@H](CC(C)C)C(=O)N[C@@H](Cc1ccccc1)C(=O)O (Ac-Q[tBuAla]DLF-OH) = 6.00

query: Please report the recorded pIC50 for CC(=O)N[C@@H](CCC(N)=O)C(=O)N[C@@H](CC(C)C)C(=O)N[C@@H](CC(=O)O)C(=O)N[C@@H](CC(C)C)C(=O)N[C@@H](Cc1ccccc1)C(=O)O .
result: 5.95

query: Please report the recorded pIC50 for CC(=O)N[C@@H](CCC(N)=O)C(=O)N[C@@H](CCC(C)C)C(=O)N[C@@H](CC(=O)O)C(=O)N[C@@H](CC(C)C)C(=O)N[C@@H](Cc1ccccc1)C(=O)O .
result: 6.13
